- procedure.summary: Cell viability assay (AlamarBlue) in HepAD38 cells
- measurement.parameters: human
measurement.label: CC50 at 6 days

// solved cases for CC50 at 6 days follow
CN(C(=O)c1n[nH]c2c1CN(C(=O)c1cc3ccccc3[nH]1)CC2)[C@H]1CC[C@@H](O)CC1 = > 10 µM
CN(C(=O)c1[nH]nc2c1CN(C(=O)c1cc3ccccc3[nH]1)CC2)C1(c2ccno2)CC1 = > 10 µM
CN(Cc1ccccc1)C(=O)c1n[nH]c2c1CN(C(=O)c1cc3ccccc3[nH]1)CC2 = > 10 µM
O=C(NC1CC1)c1n[nH]c2c1CN(C(=O)c1cc3ccccc3[nH]1)CC2 = > 10 µM
COCC1(N(C)C(=O)c2n[nH]c3c2CN(C(=O)c2cc4cc(F)ccc4[nH]2)CC3)CC1 = > 10 µM

[ask] Assign CC50 at 6 days to the following record: `C[C@H]1CCCCN1C(=O)c1n[nH]c2c1CN(C(=O)c1cc3ccccc3[nH]1)CC2`
[reply] > 10 µM

[ask] Assign CC50 at 6 days to the following record: `CN(CCO)C(=O)c1n[nH]c2c1CN(C(=O)c1cc3c(C(F)(F)F)cccc3[nH]1)CC2`
[reply] > 32 µM

[ask] Assign CC50 at 6 days to the following record: `CCc1cccc2[nH]c(C(=O)N3CCc4[nH]nc(C(=O)N(C)C5(CO)CC5)c4C3)cc12`
[reply] > 10 µM

[ask] Assign CC50 at 6 days to the following record: `CN(C(=O)c1[nH]nc2c1CN(C(=O)c1cc3ccccc3[nH]1)CC2)C1(C(=O)OC(C)(C)C)CC1`
[reply] > 10 µM

[ask] Assign CC50 at 6 days to the following record: `O=C(c1cc2ccc(Br)cc2[nH]1)N1CCc2[nH]ncc2C1`
[reply] > 100 µM

----------
- procedure.summary: Cell viability assay (AlamarBlue) in HepAD38 cells
- measurement.parameters: human
measurement.label: CC50 at 6 days

// solved cases for CC50 at 6 days follow
O=C(c1cc2ccccc2[nH]1)N1CCc2[nH]nc(S(=O)(=O)N3CCCC3)c2C1 [Example 210] = > 10 µM
CN(C(=O)c1[nH]nc2c1CN(C(=O)c1cc3ccccc3[nH]1)CC2)[C@H]1CCC[C@@H]1O [Example 252] = > 10 µM
CN(CCC(=O)NS(=O)(=O)C1CC1)C(=O)c1[nH]nc2c1CN(C(=O)c1cc3ccccc3[nH]1)CC2 [Example 247] = > 10 µM

The record that follows has no CC50 at 6 days shown yet.
[ask] Assign CC50 at 6 days to the following record: CC(C)OC(=O)[C@H](C)NP(=O)(OCCCN(C)C(=O)c1n[nH]c2c1CN(C(=O)c1cc3c(Cl)cccc3[nH]1)CC2)Oc1ccccc1 (stereo partly shown) [Example 66]
[reply] > 32 µM

----------
- procedure.summary: Cell viability assay (AlamarBlue) in HepAD38 cells
- measurement.parameters: human
measurement.label: CC50 at 6 days

// solved cases for CC50 at 6 days follow
CC(C)OC(=O)[C@H](C)NP(=O)(OCCON(C)C(=O)c1n[nH]c2c1CN(C(=O)c1cc3c(Cl)cccc3[nH]1)CC2)Oc1ccccc1 (some centres unmarked) = > 32 µM
CN(CC(C)(C)O)C(=O)c1n[nH]c2c1CN(C(=O)c1cc3ccccc3[nH]1)CC2 = > 32 µM
CN(CCO)C(=O)c1n[nH]c2c1CN(C(=O)c1cc3ccc(Br)cc3[nH]1)CC2 = > 10 µM

[ask] Assign CC50 at 6 days to the following record: `O=C(c1cc2ccccc2[nH]1)N1CCc2[nH]nc(NCC3CC3)c2C1`
[reply] > 100 µM

[ask] Assign CC50 at 6 days to the following record: `CC(=O)NCCN(C)C(=O)c1n[nH]c2c1CN(C(=O)c1cc3ccccc3[nH]1)CC2`
[reply] > 10 µM

[ask] Assign CC50 at 6 days to the following record: `O=C(c1cc2ccccc2[nH]1)N1CCc2[nH]nc(C(=O)N(C3CCOCC3)C3CC3)c2C1`
[reply] > 10 µM

[ask] Assign CC50 at 6 days to the following record: `CN(C(=O)c1n[nH]c2c1CN(C(=O)c1cc3ccccc3[nH]1)CC2)C1(CC#N)CC1`
[reply] > 10 µM

[ask] Assign CC50 at 6 days to the following record: `O=C(c1cc2c(F)ccc(F)c2[nH]1)N1CCc2[nH]nc(C3CCC3)c2C1`
[reply] > 10 µM

Data origin, for the record: patent US11236087B2
